Values were extracted from patent US20120142685A1.

A collection of molecules and their measured IC50
target: protein kinase D2 (PKD2) (Homo sapiens); construct: This assay is performed with full length wild-type enzyme purchase from Invitrogen; purchased Invitrogen; assay: PKD2 TR-FRET (LANCE) kinase assay; format: biochemical
Answer with a number only, understood to be in nM.

{"molecule": "CNc1cc(-c2cc3cnccc3c(NC)n2)ccn1 [Example 2]", "measurement target": "protein kinase D2 (PKD2) (Homo sapiens)", "IC50, nM": 753}
{"molecule": "CN1CCN(c2nc(-c3ccnc(NC4CCCCC4)c3)cc3cnccc23)CC1 [Example 13]", "measurement target": "protein kinase D2 (PKD2) (Homo sapiens)", "IC50, nM": 14}
{"molecule": "NC(=O)C1CCN(c2nc(-c3ccnc(NC4CCCCC4)c3)cc3cnccc23)CC1 [Example 10]", "measurement target": "protein kinase D2 (PKD2) (Homo sapiens)", "IC50, nM": 414}

Here's the next entry for you.
Any idea what its IC50 is? The molecule is O=C(NCCO)C1CCN(c2nc(-c3ccnc(NC4CCOCC4)c3)cc3cnccc23)CC1 [Example 16]
11

* * *

A collection of compounds and their measured pIC50
Molecular target: protein kinase D1 (PKD1) (Homo sapiens, UniProt Q15139)
Construct: This assay is performed with full length wild-type enzyme that is expressed and purified from Sf9 insect cells; made in house; host or cells: Sf9 insect cells
Sequence (Q15139 1-912): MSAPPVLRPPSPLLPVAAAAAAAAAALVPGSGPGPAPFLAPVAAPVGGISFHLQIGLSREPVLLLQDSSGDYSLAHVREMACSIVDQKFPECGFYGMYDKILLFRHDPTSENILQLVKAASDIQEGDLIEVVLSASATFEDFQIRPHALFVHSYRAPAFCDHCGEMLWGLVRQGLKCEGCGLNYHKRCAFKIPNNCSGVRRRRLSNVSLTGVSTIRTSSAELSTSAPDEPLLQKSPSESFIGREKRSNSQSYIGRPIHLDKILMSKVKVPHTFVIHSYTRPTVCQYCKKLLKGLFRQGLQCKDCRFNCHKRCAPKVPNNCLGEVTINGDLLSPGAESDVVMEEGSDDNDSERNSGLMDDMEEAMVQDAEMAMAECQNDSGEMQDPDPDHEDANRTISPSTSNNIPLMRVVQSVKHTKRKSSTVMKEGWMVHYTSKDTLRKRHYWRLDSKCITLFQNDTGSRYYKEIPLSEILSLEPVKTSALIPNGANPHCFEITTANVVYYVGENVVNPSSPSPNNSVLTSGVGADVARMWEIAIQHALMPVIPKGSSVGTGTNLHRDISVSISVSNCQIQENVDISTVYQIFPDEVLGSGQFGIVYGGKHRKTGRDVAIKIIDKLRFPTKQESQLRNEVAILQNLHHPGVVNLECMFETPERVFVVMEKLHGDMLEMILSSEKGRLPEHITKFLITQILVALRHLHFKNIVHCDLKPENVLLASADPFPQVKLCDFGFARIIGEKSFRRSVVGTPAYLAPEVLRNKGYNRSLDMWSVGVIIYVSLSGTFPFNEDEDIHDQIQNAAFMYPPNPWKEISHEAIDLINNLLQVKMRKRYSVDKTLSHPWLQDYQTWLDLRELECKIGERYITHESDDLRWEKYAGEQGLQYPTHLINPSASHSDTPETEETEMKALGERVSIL
Assay: PKD1 TR-FRET (LANCE) kinase assay
Format: biochemical
Conditions: full length wild-type enzyme, 20 μM ATP; read-out: Inhibitory Activity PKD1
Method: The assay to measure protein kinase D1 (PKD1) activity is a time-resolved fluorescence resonance transfer (TR-FRET) assay using PerkinElmer's LANCE™ technology. In this case, a biotinylated syntide-2 peptide is used as the substrate in this reaction. Phosphorylation of the syntide-2 substrate is detected by a specific antibody that recognizes the phosphorylated peptide. […] The APC emission is at 665 nm and the 665 nM:615 nM ratio is a readout of PKD1 activity. […]
Kindly note that pIC50 refers to -log10 of the concentration in mol/L and answer with the value alone.

Answered cases to consult:
{"compound": "OCCNc1nc(-c2ccnc(NC3CCCCC3)c2)cc2cnccc12 [Example 5]", "pIC50": 6.42}
{"compound": "CN(C)CCNc1nc(-c2ccnc(Nc3ccccc3)c2)cc2cnccc12 [Example 9]", "pIC50": 7.39}
{"compound": "CN1CCN(c2nc(-c3ccnc(NC4CCCCC4)c3)cc3cnccc23)CC1 [Example 13]", "pIC50": 8.70}

Any idea what its pIC50 is? The compound is CC(=O)N1CCN(c2nc(-c3ccnc(NC4CCCCC4)c3)cc3cnccc23)CC1 [Example 11]
6.73

Any idea what its pIC50 is? The compound is c1cc2c(NC3CCCNC3)nc(-c3ccnc(NC4CCCCC4)c3)cc2cn1 (stereo not drawn) [Example 15]
7.85

Any idea what its pIC50 is? The compound is O=C(NCCO)C1CCN(c2nc(-c3ccnc(NC4CCOCC4)c3)cc3cnccc23)CC1 [Example 16]
8.70

Any idea what its pIC50 is? The compound is CCNC(=O)N1CCN(c2nc(-c3ccnc(Nc4ccn(C)n4)c3)cc3cnccc23)CC1 [Example 18]
7.70

Any idea what its pIC50 is? The compound is Cn1ccc(Nc2cc(-c3cc4cnccc4c(N4CCC(C(N)=O)CC4)n3)ccn2)n1 [Example 19]
9.40

Any idea what its pIC50 is? The compound is NC(=O)C1CCN(c2nc(-c3ccnc(NC4CCCCC4)c3)cc3cnccc23)CC1 [Example 10]
7.08

* * *

A collection of molecules and their measured IC50
target: protein kinase D3 (PKD3) (Homo sapiens); construct: This assay is performed with full length wild-type enzyme that is purchased from Invitrogen; purchased Invitrogen; assay: PKD3 TR-FRET (LANCE) kinase assay; type: biochemical
Sequence (O94806 whole entry): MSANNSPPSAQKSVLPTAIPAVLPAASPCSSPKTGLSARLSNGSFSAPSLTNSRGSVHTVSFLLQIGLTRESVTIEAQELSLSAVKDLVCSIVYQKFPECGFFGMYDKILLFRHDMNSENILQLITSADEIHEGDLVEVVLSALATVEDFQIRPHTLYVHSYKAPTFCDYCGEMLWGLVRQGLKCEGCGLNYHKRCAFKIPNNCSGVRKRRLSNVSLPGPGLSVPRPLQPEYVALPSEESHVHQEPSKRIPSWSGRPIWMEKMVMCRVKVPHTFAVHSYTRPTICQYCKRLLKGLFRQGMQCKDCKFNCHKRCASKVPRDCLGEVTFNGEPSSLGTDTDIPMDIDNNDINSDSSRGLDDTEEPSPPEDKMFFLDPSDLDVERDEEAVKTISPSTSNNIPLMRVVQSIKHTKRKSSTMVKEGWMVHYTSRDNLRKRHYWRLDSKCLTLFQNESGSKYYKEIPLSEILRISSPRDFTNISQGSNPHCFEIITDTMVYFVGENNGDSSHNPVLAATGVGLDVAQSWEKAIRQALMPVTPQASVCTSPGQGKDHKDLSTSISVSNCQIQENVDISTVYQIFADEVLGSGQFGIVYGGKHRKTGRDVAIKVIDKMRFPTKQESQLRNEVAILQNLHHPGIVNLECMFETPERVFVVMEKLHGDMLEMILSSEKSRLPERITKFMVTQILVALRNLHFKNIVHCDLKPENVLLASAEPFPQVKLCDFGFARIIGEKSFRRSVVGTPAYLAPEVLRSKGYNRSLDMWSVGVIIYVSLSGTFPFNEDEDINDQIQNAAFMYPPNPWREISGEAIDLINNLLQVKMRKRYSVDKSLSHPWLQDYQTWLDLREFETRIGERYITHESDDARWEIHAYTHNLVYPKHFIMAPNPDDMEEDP
Answer with a number only, understood to be in µM.

{"mol smiles": "CN1CCN(c2nc(-c3ccnc(NC4CCCCC4)c3)cc3cnccc23)CC1", "measurement target": "protein kinase D3 (PKD3) (Homo sapiens)", "IC50 (µM)": 0.001}

Here's the next entry for you.
Any idea what its IC50 is? The molecule is CNc1cc(-c2cc3cnccc3c(NC)n2)ccn1
0.45

* * *

Molecular target: protein kinase D2 (PKD2) (Homo sapiens)
Construct: This assay is performed with full length wild-type enzyme purchase from Invitrogen; purchased Invitrogen
Sequence (Q9BZL6 1-878): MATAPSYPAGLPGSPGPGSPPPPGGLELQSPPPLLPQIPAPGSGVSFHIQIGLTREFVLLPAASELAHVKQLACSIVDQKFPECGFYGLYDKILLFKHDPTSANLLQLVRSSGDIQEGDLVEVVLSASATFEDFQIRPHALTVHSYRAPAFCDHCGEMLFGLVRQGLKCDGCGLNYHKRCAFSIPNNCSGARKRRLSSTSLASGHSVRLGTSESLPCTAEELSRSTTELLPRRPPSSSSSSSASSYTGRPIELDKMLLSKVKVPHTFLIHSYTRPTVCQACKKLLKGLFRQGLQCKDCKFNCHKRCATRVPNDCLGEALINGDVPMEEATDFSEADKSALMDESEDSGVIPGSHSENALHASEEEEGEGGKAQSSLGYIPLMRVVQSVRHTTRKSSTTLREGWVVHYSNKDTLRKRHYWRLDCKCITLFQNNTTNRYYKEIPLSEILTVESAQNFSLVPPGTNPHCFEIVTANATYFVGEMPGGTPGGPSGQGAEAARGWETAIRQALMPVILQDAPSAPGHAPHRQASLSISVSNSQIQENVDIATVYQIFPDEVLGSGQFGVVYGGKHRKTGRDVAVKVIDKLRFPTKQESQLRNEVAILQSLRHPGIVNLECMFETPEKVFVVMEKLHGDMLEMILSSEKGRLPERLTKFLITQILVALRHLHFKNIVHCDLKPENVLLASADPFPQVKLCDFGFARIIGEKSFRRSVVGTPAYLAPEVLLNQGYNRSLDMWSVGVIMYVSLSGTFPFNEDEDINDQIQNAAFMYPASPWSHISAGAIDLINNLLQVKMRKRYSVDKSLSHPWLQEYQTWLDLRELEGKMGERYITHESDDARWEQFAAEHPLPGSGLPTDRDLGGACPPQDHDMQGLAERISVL
Experiment: PKD2 TR-FRET (LANCE) kinase assay
Format: biochemical
Conditions: full length wild-type enzyme, 20 μM ATP; read-out: Inhibitory Activity PKD2
A collection of compounds and their measured log10 of IC50
Please be aware that the numbers have been log10-transformed from IC50 in nM.

{"compound": "COc1cccc(Nc2cc(-c3cc4cnccc4c(NCCO)n3)ccn2)c1 [Example 7]", "log10 of IC50": 2.29}
{"compound": "CNc1cc(-c2cc3cnccc3c(NCCCO)n2)ccn1 [Example 1]", "log10 of IC50": 2.96}

Any idea what its log10 of IC50 is? The compound is Cn1ccc(Nc2cc(-c3cc4cnccc4c(N4CCC(C(N)=O)CC4)n3)ccn2)n1 [Example 19]
0.30

Any idea what its log10 of IC50 is? The compound is O=C(NC1CC1)C1CCN(c2nc(-c3ccnc(NC4CCOCC4)c3)cc3cnccc23)CC1 [Example 17]
1.15

Any idea what its log10 of IC50 is? The compound is Cn1ccc(Nc2cc(-c3cc4cnccc4c(N4CCC5(CCNC5=O)CC4)n3)ccn2)n1 [Example 20]
1.77

Any idea what its log10 of IC50 is? The compound is COCCNc1cc(-c2cc3cnccc3c(N3CCNCC3)n2)ccn1 [Example 21]
2.08

Any idea what its log10 of IC50 is? The compound is CN(C)CCNc1nc(-c2ccnc(Nc3ccccc3)c2)cc2cnccc12 [Example 9]
2.23

Any idea what its log10 of IC50 is? The compound is CC(C)Nc1cc(-c2cc3cnccc3c(NCCO)n2)ccn1 [Example 6]
2.70

Any idea what its log10 of IC50 is? The compound is c1cc2c(N3CCNCC3)nc(-c3ccnc(NC4CCCCC4)c3)cc2cn1 [Example 3]
-0.52
